- assay_name: Human HepG2 cell viability assay in 384 well format
- Assay type: toxicity, cell-based
- Set-up: dose 125 nL, time 70.5 hour; concentration not given beside the values
- condition_set: HepG2 cells, read-out: Inhibition
Assign cytotoxicity at 70.5 h to each entry below.
Answers are plain numbers, in %.

Recorded cytotoxicity at 70.5 h, per entry:
Quick one: give measured cytotoxicity at 70.5 h for CC1CN(CC(=O)NC2CCOCC2)CCN1Cc1nccn1C (stereo not drawn)
-0.539

Look up and state reported cytotoxicity at 70.5 h for CC(NCc1ccsc1)c1ccc(OCc2nccn2C)cc1 (stereo not drawn)
-3.28

I need cytotoxicity at 70.5 h for every entry listed below, if you could help.
1. O=S(=O)(c1cccs1)N1CCCC2(COCCN(c3cccnc3)C2)C1 (stereo not drawn)
2. COc1ccc2cc(C(=O)N3CCCC(n4ccnc4C)C3)[nH]c2c1 (stereo not drawn)
3. NC(=O)C1Cc2ccccc2CN1CCC(=O)N1CCc2ccccc21 (stereo not drawn)

1: -1.65; 2: 0.0549; 3: -6.41

Hey, quick one: what's cytotoxicity at 70.5 h for each of these?
1. COCc1nc(C(=O)NS(=O)(=O)c2c(C)c(C)cc(C)c2C)cs1
2. CCNC(c1ccc(Cl)cc1)c1cccnc1 (stereo not drawn)

2.47
34.5

Hey, can you go through the list below and give me cytotoxicity at 70.5 h for every item?
1. CC(C)c1nnc(CN2CC(n3cccn3)Cc3ccccc32)o1 (stereo not drawn)
2. NC(=O)C1CCCN1C1CCN(C(=O)c2ccc3c(c2)OCO3)CC1 (stereo not drawn)
3. CC(C)C[C@H]1CN(c2nc3c(cc2C(N)=O)CCC3)CC[C@@]1(C)O
4. Cc1nc2c(C)cccc2cc1C(=O)N1CCC2(CCCNC2)C1 (stereo not drawn)
5. CCN(CC)C(=O)CN(C)C(=O)c1ccc(-c2ccsc2)nc1C
6. CC(=O)N1CCC(N[C@@H]2CC[C@@H]2NS(=O)(=O)c2cccnc2)CC1
7. N#Cc1ccc(F)c(CN2CCCC2Cn2cccn2)c1 (stereo not drawn)

1. -4.11
2. -1.65
3. -7.33
4. -11.4
5. 33.4
6. 2.57
7. -5.17

* * *

For each record, write down the corresponding cytotoxicity at 70.5 h.
- assay_name: Human HepG2 cell viability assay in 384 well format
- Type: toxicity, cell-based
- Parameters: dose 125 nL, time 70.5 hour; concentration not given beside the values
- condition_set: HepG2 cells, read-out: Inhibition
One number for each entry, in %.

Please review the entries below; each comes with its answer.
Give the reported value of cytotoxicity at 70.5 h for this record: Cn1nc(-c2ccccc2)cc1[C@H]1CN2CC[C@H]1C[C@@H]2CNS(C)(=O)=O
-6.73

Please indicate cytotoxicity at 70.5 h recorded for CC(C)(CO)Nc1cc(-c2cn[nH]c2)ncn1
-2.91

Name the recorded cytotoxicity at 70.5 h of the item N#Cc1cc(F)ccc1Cn1cncn1 in your answer.
-9.13

Kindly consider the entry below.
For Cc1cnc(CN(C)C2CCN(CCCc3ccccc3)C2)o1 (centres undefined) , write its cytotoxicity at 70.5 h.
10

* * *

What cytotoxicity at 70.5 h was measured for each of the following?
- assay_name: Human HepG2 cell viability assay in 384 well format
- Assay type: toxicity, cell-based
- Design: dose 125 nL, time 70.5 hour; concentration not given beside the values
- condition_set: HepG2 cells, read-out: Inhibition
Answers are plain numbers, in %.

Worked set:
Return value of cytotoxicity at 70.5 h for input Cc1nn(C)c(N(C)C)c1CNCCS(C)(=O)=O , no commentary.
20.1

Using known records, supply cytotoxicity at 70.5 h for Cn1cccc1C(=O)N1C[C@@H]2C[C@@H](c3nc(C4CC4)cs3)O[C@@H]2C1
4.85

State its cytotoxicity at 70.5 h for this compound: CCc1nc(CN2CCCN(Cc3nnc(C4CC4)o3)CC2)no1
-5.98

# batch: return cytotoxicity at 70.5 h for each of the 4 compounds below
1. CCN(Cc1cccc(F)c1)Cn1nc(C)c2c(C)onc2c1=O
2. CCOCCNC(=O)Nc1cccc(-c2nccn2C)c1
3. CCOc1ccc2c(c1)CN(Cc1nc3c(cnn3C)c(=O)[nH]1)CC2
4. CSc1ccccc1NC(=O)C1CSc2ncc(C)c(=O)n2C1 (configuration not stated)

1. -8.8
2. -10
3. -4.82
4. -10.7

Okay, here is my list. What is cytotoxicity at 70.5 h for each of these?
1. Cc1ncc(C(=O)NCCNc2ncccc2C#N)s1
2. Cc1ccccc1CSc1nc(N)cc(N2CCOCC(CO)C2)n1 (configuration not stated)
3. COCCCN1CCCC1c1noc(C2CC2)n1 (configuration not stated)
4. CS(=O)(=O)N1CCCC12CCN(Cc1ccoc1)CC2
5. CCCN1CCC(c2nc3ccc(-c4cccc(F)c4)cn3n2)CC1

1: -0.109; 2: 6.16; 3: 23.8; 4: -3.22; 5: -7.17
